pIC50, factor Xa (Homo sapiens), per-entry values.
pIC50: −log10 of the molar value. Structures can show the parent of a compound that is named as a salt.
assay readout: pIC50

CC(NC(=O)CNc1cccc(C(=N)N)c1)C(=O)NC1CCCCC1 (stereo not shown) [Example 11, hydrochloride]: 5.35

1: N=C(N)c1cccc(NCC(=O)NCC(=O)NCCc2c[nH]c3ccccc23)c1 [Example 2, hydrochloride]
2: N=C(N)c1cccc(NCC(=O)NCC(=O)NCCc2ccc(O)cc2)c1 [Example 9, hydrochloride]
Q: // pick larger pIC50 from pair: 1 vs 2 // caller expects the label of the chosen entry
Result: 2
(2: 5.62, 1: 5.17)

###

IC50, factor Xa (Homo sapiens, UniProt P00742), per-entry values.
Counter-ions that a name gives are not always drawn.

COc1ccc(CNC(=O)C(C)NC(=O)CNCc2ccc(C(=N)N)cc2)cc1OC (stereo not drawn) [Example 6, hydrochloride]: > 110 µM
CC(NCc1ccc(C(=N)N)cc1)C(=O)NCC(=O)NCCc1ccccn1 (stereo not drawn) [Example 13, hydrochloride]: > 110 µM

As a next step, examine the compound that follows.
Q: Reported IC50 for factor Xa (Homo sapiens, UniProt P00742), given N=C(N)c1ccc(CNCC(=O)NCC(=O)N2CCN(Cc3ccc4c(c3)OCO4)CC2)cc1 [Example 23, hydrochloride] ?
Result: > 110 µM
